Answer each item with its documented log10(IC50).
Molecular target: Phospholipid transfer protein (Homo sapiens)
Sequence (P55058 whole entry): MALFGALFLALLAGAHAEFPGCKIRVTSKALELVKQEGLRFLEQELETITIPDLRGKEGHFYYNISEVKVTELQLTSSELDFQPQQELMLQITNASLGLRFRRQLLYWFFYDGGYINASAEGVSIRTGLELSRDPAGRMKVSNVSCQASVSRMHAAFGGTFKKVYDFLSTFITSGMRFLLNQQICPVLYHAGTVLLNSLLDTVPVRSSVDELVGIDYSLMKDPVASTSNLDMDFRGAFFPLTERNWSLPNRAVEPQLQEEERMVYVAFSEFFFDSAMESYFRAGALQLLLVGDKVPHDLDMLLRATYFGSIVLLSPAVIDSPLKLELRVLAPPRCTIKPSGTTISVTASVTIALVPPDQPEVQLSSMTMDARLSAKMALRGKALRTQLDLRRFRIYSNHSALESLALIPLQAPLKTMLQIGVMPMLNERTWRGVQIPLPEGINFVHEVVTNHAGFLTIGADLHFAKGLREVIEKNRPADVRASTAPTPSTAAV
Assay: Inhibition of PLTP
Conditions: read-out: IC50
All values: base-10 log of IC50 in µM.

Fill in the blank: the reported log10(IC50) of "CCCCc1[se]c(NC(=O)c2cc(OC)c(OC)c(OC)c2)nc1-c1ccc(OC)cc1" is ____.
2.18

Would you mind doing "CCCCCC(=O)Nc1nc(-c2ccc(O)cc2)c(Cc2ccccc2)[se]1" as well?
1.78

Would you mind doing "CCc1[se]c(NC(=O)c2ccc(Cl)cc2)nc1-c1ccc(O)cc1" as well?
1.78

Would you mind doing "CCCCc1[se]c(NC(C)=O)nc1-c1ccc(O)cc1" as well?
1.78

Would you mind doing "CCCCc1[se]c(NC(=O)c2ccc(Cl)cc2)nc1-c1ccc(O)cc1" as well?
1.78

Would you mind doing "CCc1[se]c(NC(=O)c2cc(O)c(O)c(O)c2)nc1-c1ccc(O)cc1" as well?
1.51

Would you mind doing "O=C(Nc1nc(-c2ccc(O)cc2)c(Cc2ccccc2)[se]1)c1cc(O)c(O)c(O)c1" as well?
1.51

Would you mind doing "CCCCc1[se]c(NC(=O)c2cc(O)c(O)c(O)c2)nc1-c1ccc(O)cc1" as well?
1.00

Would you mind doing "COc1ccc(-c2nc(NC(=O)c3ccc(OC)c(OC)c3)[se]c2Cc2ccccc2)cc1" as well?
1.90

Would you mind doing "O=C(Nc1nc(-c2ccc(O)cc2)c(Cc2ccccc2)[se]1)c1ccc(O)c(O)c1" as well?
1.54

src = ChEMBL document CHEMBL1221268
